// reported MIC for each item listed
- System: Staphylococcus aureus SA 6114 (ATCC 29213, reference strain)
- test-details: MIC, broth-microdilution (CLSI VET01-A4)
- Format: cell-based
- particulars: strain SA 6114

Known results for molecules:
{"molecule": "CC(C)(N)C(NC(=O)c1ccc(C#Cc2ccc(CNCc3ccncc3)cc2)cc1)C(=O)NO (stereo not drawn)", "MIC": ">16 µg/mL"}
{"molecule": "CC(C)(N)C(NC(=O)c1ccc(C#Cc2ccc(CNC3CC3)cc2)cc1)C(=O)NO (stereo not drawn)", "MIC": ">16 µg/mL"}
{"molecule": "COCCNCc1ccc(C#Cc2ccc(C(=O)N[C@H](C(=O)NO)[C@@H](C)O)cc2)cc1", "MIC": ">16 µg/mL"}
{"molecule": "C[C@@H](O)[C@H](NC(=O)c1ccc(C#Cc2ccc(CNCC(F)(F)F)cc2)cc1)C(=O)NO", "MIC": ">16 µg/mL"}
{"molecule": "CCCNCc1ccc(C#Cc2ccc(C(=O)N[C@H](C(=O)NO)[C@@H](C)O)cc2)cc1", "MIC": ">16 µg/mL"}

Could you now look at the following molecule, please?
INPUT: Quick check: MIC of COCCNCc1ccc(C#Cc2ccc(C(=O)N[C@H](C(=O)NO)[C@@H](C)O)cc2)s1 ?
OUTPUT: >16 µg/mL
